Biological target: T1, CRBN, Q96SW2;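 also: pooled lentiviral library of zinc finger degron-EGFP fusions in mCherry-positive Jurkat cells, FACS-sorted after compound exposure, with degron abundance counted by next-generation sequencing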
T1 chain: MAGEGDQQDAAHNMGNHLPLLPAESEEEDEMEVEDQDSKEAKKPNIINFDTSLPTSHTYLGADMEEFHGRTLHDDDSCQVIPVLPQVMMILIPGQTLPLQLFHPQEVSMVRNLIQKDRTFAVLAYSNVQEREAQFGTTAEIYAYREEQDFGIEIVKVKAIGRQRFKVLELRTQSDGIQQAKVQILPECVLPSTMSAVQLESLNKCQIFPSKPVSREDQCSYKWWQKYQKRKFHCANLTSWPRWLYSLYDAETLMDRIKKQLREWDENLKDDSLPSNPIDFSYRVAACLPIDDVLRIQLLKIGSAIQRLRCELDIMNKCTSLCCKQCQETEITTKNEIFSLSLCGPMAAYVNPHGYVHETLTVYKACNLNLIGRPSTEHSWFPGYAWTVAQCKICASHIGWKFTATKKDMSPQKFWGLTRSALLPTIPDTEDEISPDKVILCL
Assay: log2 fold change of degron read counts, EGFP-low vs EGFP+ sorted cells (limma voom), compound-induced degradation; higher = more compound-induced degradation of the degron-EGFP fusion; degrons are variants of IKZF1/3 zinc finger 2; compound dose not given here
Settings: Jurkat; 18 h; compound: compound 19 (5-tert-butyl-thalidomide)
Whole data set: some 8,300 sequences, median “log2 fold change of degron read counts, EGFP-low vs EGFP+ sorted cells (limma voom), compound-induced degradation” near -1.1, cut for the highest 2% near 3.2. What follows is part of a selection rich in the highest values, with near analogues and random picks from the rest.
Give t when the value for log2 fold change of degron read counts is at least -0.1. Give f when it is less.

FICDICGATFTQKGNLLRHIKL [46F_47I_49D_50I_52G_53A_54T_55F_67L_, Q9UKT9] ... f
FQCNVCGAGFTQKGNLLRHIKL [46F_47Q_49N_50V_52G_53A_54G_55F_67L_, Q9UKT9] ... f
LWCEICGFSCTQKGNLLRHIKL [46L_47W_49E_50I_52G_53F_54S_55C_67L_, Q9UKT9] ... t
LNCEICGFSCTQKGNLLRHIKL [46L_47N_49E_50I_52G_53F_54S_55C_67L_, Q9UKT9] ... t
LDCEICGFSCTQKGNLLRHIKL [46L_47D_49E_50I_52G_53F_54S_55C_67L_, Q9UKT9] ... t
FICEICGACFTQKGNLLRHIKL [46F_47I_49E_50I_52G_53A_54C_55F_67L_, Q9UKT9] ... f
LACEICGFSCTQKGNLLRHIKL [46L_47A_49E_50I_52G_53F_54S_55C_67L_, Q9UKT9] ... t
